Hi there, I'd appreciate the recorded protein stability index for every entry that follows.
B1: NR2F2 (parent)
chain: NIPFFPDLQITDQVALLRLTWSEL

Variants of: B1
test: protein stability index of a GFP-peptide fusion (GPS, HEK-293T) (PSI 1-6); higher = more stable;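 further: lentivirally expressed fusions sorted by FACS into six bins by GFP to DsRed ratio, PSI derived from sequencing read proportions per bin multiplied by bin number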
setup-conditions: c terminus: a fixed tail appended
Give the figure by itself; no unit, no explanation.

What measured protein stability index goes with NIPQFPDLQITDQVALLRLTWSEL [F4Q] ?
2.62

Given the variant NIPFFPDLQITDTVALLRLTWSEL [Q13T] , what is its reported protein stability index?
3.06

Please look up its protein stability index: NIPEFPDLQITDQVALLRLTWSEL [F4E]
2.22

// returns reported protein stability index for input NIPFFPDLQITDQVALLRLTWREL [S22R]
1.53

For the variant shown here, NIPFFPILQITDQVALLRLTWSEL [D7I] , give the reported protein stability index.
2.86

GET /values?readout=protein stability index&item= NIPFFPDLQITDQVALLRLTESEL [W21E]
2.78

Which protein stability index is listed for NIPFFPDLQITDQVWLLRLTWSEL [A15W] ?
2.03

Entry under review: NIPFFPDLQITDQVLLLRLTWSEL [A15L] . Reported protein stability index?
2.58

Find the recorded protein stability index belonging to NIPFFNDLQITDQVALLRLTWSEL [P6N] and report it.
2.81

Can you look up the measured protein stability index of NIPFFPDLQITHQVALLRLTWSEL [D12H] for me?
3.3

Please report the recorded protein stability index for NIPFFPDLQITDQVACLRLTWSEL [L16C] .
2.65

Name the reported protein stability index value associated with the variant NIPFFKDLQITDQVALLRLTWSEL [P6K]
2

Which protein stability index is reported for this variant? NIPFFPDLKITDQVALLRLTWSEL [Q9K]
1.89

Name the reported protein stability index value associated with the variant TIPFFPDLQITDQVALLRLTWSEL [N1T]
2.02

What does the data say about its protein stability index? Entry: NIPFFPDLQITDQVALLRLTWSEH [L24H]
2.68

Which protein stability index is listed for LIPFFPDLQITDQVALLRLTWSEL [N1L] ?
2.23

Would you kindly share the measured protein stability index for NIPFFPDLQITDQVALRRLTWSEL [L17R] ?
1.98

// protein stability index lookup, key: NIPFFPDLQITDQVALLRLTWCEL [S22C]
3.38

I would be grateful if you could share the reported protein stability index for NIPFFPDLQETDQVALLRLTWSEL [I10E] .
1.68

Data request, read-out protein stability index, for NIPFFPDHQITDQVALLRLTWSEL [L8H]
2

What value of measured protein stability index is listed for NIPFFPHLQITDQVALLRLTWSEL [D7H] ?
2.53

May I ask what protein stability index has been recorded for NIPFFPDRQITDQVALLRLTWSEL [L8R] ?
1.99

Which protein stability index is reported for this variant? NIPFFPDLQWTDQVALLRLTWSEL [I10W]
2.39

Which protein stability index reading was recorded for the variant NIPFFPDLQITDQVALLRLTWSEY [L24Y] ?
1.65

Can you share its protein stability index? I mean this variant: NIPFFPDLQITDQVALLRLTWSLL [E23L]
2.57

Please give the measured protein stability index for this variant: NIPFFPDLQIRDQVALLRLTWSEL [T11R]
2.52

Query (variant): NIPFFPDLQDTDQVALLRLTWSEL [I10D] ; field requested: protein stability index
1.68

Form field: reported protein stability index of NIPFFPDLQITGQVALLRLTWSEL [D12G]
2.42

Endpoint output: protein stability index of NIPFFPALQITDQVALLRLTWSEL [D7A] . Value?
1.65

# lookup: protein stability index of HIPFFPDLQITDQVALLRLTWSEL [N1H]
2.44

Return reported protein stability index; argument: NIPFFPDLQITDQVALLRLRWSEL [T20R]
2.21

Find the recorded protein stability index belonging to CIPFFPDLQITDQVALLRLTWSEL [N1C] and report it.
2.81

Fill in the blank: the reported protein stability index of NIPFFPDLQITDQVALLRITWSEL [L19I] is ____.
2.3

I have this variant here, NIPFFPDLQKTDQVALLRLTWSEL [I10K] , and I need its recorded protein stability index.
2.58

So what does the record say about protein stability index for NIPFFPDLQITDQVAMLRLTWSEL [L16M] ?
3.26

Which protein stability index is reported for this variant? NIEFFPDLQITDQVALLRLTWSEL [P3E]
2.12

I am curious: what protein stability index value has been reported for NHPFFPDLQITDQVALLRLTWSEL [I2H] ?
2.1

What does the record list as protein stability index for NIPFFPDLQITDQVALLRLTKSEL [W21K] ?
2.35

Would you kindly share the measured protein stability index for NIPFFPDLQITDQVALLRLTWSYL [E23Y] ?
2.74

Which protein stability index is listed for NIPFFPDLQITDDVALLRLTWSEL [Q13D] ?
1.85

I would be grateful if you could share the reported protein stability index for NIPFFPDLQITDQVALLRLEWSEL [T20E] .
1.96

# input variant: NIPFFPDLQITDQVALLRLTWSFL [E23F] ; wanted: its protein stability index
3.75

Could you share which protein stability index value was measured for NIPFFPDLAITDQVALLRLTWSEL [Q9A] ?
2.86

Query: protein stability index; subject: NIPFFPDLQITDQVALLRLTASEL [W21A]
2.49

Fill blank: measured protein stability index of the variant NIPFFPDLQITDQVALLRLTRSEL [W21R] is ____.
2.14

Request the reported protein stability index associated with NIPFFPDLQIHDQVALLRLTWSEL [T11H]
2.89

Each recorded value in this set is attributed to the supplement of paper PMC10567573.
